The reported measurements were obtained from the supplement of paper PMC11061612.

System: NB7 (Neuroblastoma)
Experiment: combination Emax (second highest fraction inhibited in the dose matrix, 72 h); higher = more inhibition; extreme values may be limits of the assay
parameter: combination Emax
Respond numerically, and do not add a unit to the figure.

Reference set, count: 3
| compound | combination Emax |
| --- | --- |
| CC1(C)CCC(CN2CCN(c3ccc(C(=O)NS(=O)(=O)c4ccc(NCC5CCOCC5)c([N+](=O)[O-])c4)c(Oc4cnc5[nH]ccc5c4)c3)CC2)=C(c2ccc(Cl)cc2)C1 [Venetoclax] + Cn1cnc2c(F)c(Nc3ccc(Br)cc3Cl)c(C(=O)NOCCO)cc21 [Selumetinib] (first compound max 1 µM, 7x7, partner max 3 µM) | 0.137 |
| Cn1cnc2c(F)c(Nc3ccc(Br)cc3Cl)c(C(=O)NOCCO)cc21 [Selumetinib] + C[C@@H]1COCCN1C2=NC(=NC(=C2)C3(CC3)[S@](=N)(=O)C)C4=C5C=CNC5=NC=C4 [AZD6738] (first compound max 10 µM, 7x7, partner max 10 µM) | 0.597 |
| Cc1c2c(nn1C)CSCc1cc(n(C)n1)CSc1cc(c3ccccc3c1)OCCCc1c(C(=O)O)n(C)c3c-2c(Cl)ccc13 [AZD5991] + CCN(CCO)CCCOc1ccc2c(Nc3cc(CC(=O)Nc4cccc(F)c4)[nH]n3)ncnc2c1 [AZD2811] (first compound max 1 µM, 7x7, partner max 1 µM) | 0.872 |

Now look at this entry.
Fill blank: measured combination Emax of the compound C=CCn1c(=O)c2cnc(Nc3ccc(N4CCN(C)CC4)cc3)nc2n1-c1cccc(C(C)(C)O)n1 [AZD1775] + Nc1ccn([C@@H]2O[C@H](CO)[C@@H](O)C2(F)F)c(=O)n1 [Gemcitabine] (first compound max 1 µM, partner max 0.3 µM) is ____.
0.721
